The reported measurements were obtained from PubChem BioAssay (NCI).

system: NCI-H226 lung; assay: NCI tumour cell line growth inhibition, 48 h
assay readout: log10 TGI (log10 of the value in µM)
// units: µM (pre-log); metric: TGI; scale: log10

Incoming: Query log10 TGI for COc1cnc2c(c1)C(=O)c1c-2n(CCCN2CCN(CCO)CC2)c(=O)c2cc([N+](=O)[O-])ccc12
Outgoing: 1.30

Incoming: Tell me measured log10 TGI for CCOc1ccc2c(c1)NC(=O)C(C1OC(c3ccccc3)=CC1=O)S2 (configuration not stated) please.
Outgoing: 1.83

Incoming: In one line, give reported log10 TGI of the entry CC(O)=NC(Cc1ccc2ccccc2c1)C(O)=NC(Cc1ccc(Cl)cc1)C(O)=NC(Cc1c[nH]c2ccccc12)C(O)=NC(CO)C(O)=NC(Cc1ccc(O)cc1)C(O)=NC(CCCN=C(N)N)C(O)=NC(CC(C)C)C(O)=NC(CCCN=C(N)N)C(=O)N1CCCC1C(O)=NC(C)C(=N)O (configuration not stated) .
Outgoing: 1.91

Incoming: Identify measured log10 TGI associated with Cc1cccnc1CNC1CC(NCc2ncccc2C)CC(NCc2ncccc2C)C1 (configuration not stated)
Outgoing: 0.50

Incoming: // Input: C/C(=N\Nc1cccc(Cl)n1)c1ccccn1 . Output its log10 TGI only.
Outgoing: 0.82

Incoming: For the molecule CC(=O)OCC(=O)C1(O)C(C)CC2C3C=C(C)C4=Cc5c(cnn5-c5ccccc5)CC4(C)C3C(O)CC21C (configuration not stated) , report log10 TGI.
Outgoing: 1.05

Incoming: For the molecule Cc1cc2c(C(C)C)c(O)c(O)c(C=O)c2c(O)c1-c1c(C)cc2c(C(C)C)c(O)c(O)c(C=O)c2c1O (tested in a mixture with another compound) , give its measured log10 TGI value.
Outgoing: 0.69
